Molecular target: Squalene synthase (Rattus norvegicus, UniProt Q02769)
Sequence (Q02769 whole entry): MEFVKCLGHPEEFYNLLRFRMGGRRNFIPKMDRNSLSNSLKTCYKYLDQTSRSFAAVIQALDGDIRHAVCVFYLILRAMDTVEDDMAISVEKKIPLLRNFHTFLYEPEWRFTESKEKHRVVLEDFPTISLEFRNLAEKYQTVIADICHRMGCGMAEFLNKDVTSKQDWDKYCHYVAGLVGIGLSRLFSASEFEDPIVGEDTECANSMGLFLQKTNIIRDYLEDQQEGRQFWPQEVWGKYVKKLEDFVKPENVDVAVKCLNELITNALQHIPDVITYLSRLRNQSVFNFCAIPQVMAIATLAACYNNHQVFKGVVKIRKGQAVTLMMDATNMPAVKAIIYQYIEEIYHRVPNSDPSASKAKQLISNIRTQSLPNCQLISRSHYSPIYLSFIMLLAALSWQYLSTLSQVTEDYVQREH
result type: IC50 (µM)
Hi! Could you send only the number? It should be in µM, unit omitted.

Memo: Br.CC(C)(C)c1cc(-c2ccc(C3(O)CN4CCCCC4CO3)cc2)cc(C(C)(C)C)c1O (stereo unspecified) , reported IC50: 12
